# assay.target: T1, cyclo (CGHHQKG) (SEQ ID NO: 2)-BSA (cyclized peptide, cyclo(CGHHQKG); conjugated to BSA)
# T1 construct: also called cyclic peptide-BSA; cyclo-BSA peptide
# T1 sequence (P02769 25-607 limits assumed): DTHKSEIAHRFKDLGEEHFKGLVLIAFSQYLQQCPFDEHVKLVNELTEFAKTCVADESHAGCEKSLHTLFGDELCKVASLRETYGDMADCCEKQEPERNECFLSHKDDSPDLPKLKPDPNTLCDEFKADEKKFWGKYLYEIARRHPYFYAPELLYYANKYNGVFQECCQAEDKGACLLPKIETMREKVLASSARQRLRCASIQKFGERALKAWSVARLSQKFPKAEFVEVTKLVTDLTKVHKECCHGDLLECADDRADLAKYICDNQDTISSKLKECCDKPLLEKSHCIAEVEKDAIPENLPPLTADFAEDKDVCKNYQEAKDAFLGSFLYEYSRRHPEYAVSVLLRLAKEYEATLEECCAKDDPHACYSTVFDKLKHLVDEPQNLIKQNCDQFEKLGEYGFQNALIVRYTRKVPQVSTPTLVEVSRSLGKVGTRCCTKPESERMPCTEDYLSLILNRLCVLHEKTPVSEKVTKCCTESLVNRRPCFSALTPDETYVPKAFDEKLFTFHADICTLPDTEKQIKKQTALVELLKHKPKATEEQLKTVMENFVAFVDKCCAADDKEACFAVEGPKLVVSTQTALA
# method.summary: SPR multi-cycle kinetics, purified IgG4 vs cyclic peptide-BSA
quantity.measured: kon (M⁻¹ s⁻¹)
Give the quantity in M⁻¹ s⁻¹, number only.

Recorded kon of Clone 5 (affinity matured VH with parental Vk, human IgG4 S241P / kappa) (antibody, V domains shown) VH: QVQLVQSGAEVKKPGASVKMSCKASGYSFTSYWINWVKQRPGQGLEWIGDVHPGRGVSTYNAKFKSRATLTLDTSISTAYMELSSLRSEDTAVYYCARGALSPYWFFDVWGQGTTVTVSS VL: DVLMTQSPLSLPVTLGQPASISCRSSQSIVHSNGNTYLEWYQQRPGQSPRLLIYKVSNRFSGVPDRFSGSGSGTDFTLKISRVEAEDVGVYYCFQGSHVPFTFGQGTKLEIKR , please.
2.04e+06
